Biological target: β-lactamase (Citrobacter freundii, UniProt P05193)
Construct: Various β-lactamases can be isolated from penicillin- or cephalosporin-resistant bacterial strains such as; endogenous in cells; host or cells: Citrobacter freundii 1203 (enzyme purified from the crude cell extract, after ampicillin induction when necessary)
Sequence (P05193 21-381): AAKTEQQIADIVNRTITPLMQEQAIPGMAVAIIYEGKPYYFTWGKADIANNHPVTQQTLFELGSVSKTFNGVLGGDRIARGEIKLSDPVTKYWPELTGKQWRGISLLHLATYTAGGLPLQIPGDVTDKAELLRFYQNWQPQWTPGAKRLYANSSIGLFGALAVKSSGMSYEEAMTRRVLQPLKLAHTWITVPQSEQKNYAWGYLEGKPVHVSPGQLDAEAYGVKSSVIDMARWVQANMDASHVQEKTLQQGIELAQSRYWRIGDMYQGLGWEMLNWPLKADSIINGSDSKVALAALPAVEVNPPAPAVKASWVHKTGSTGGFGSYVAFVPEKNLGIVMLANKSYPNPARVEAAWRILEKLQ
Experiment: biochemical
Settings: IC 50 nM, isolated β-lactamase of Citrobacter freundii; substrate nitrocefin 0.1 mM; 15 minutes pre-incubation with inhibitor; 37° C., pH 7.0
Protocol: A. Isolation of the β-lactamases […] The determination of the activity of the isolated β-lactamases can be carried out according to the method of O'Callaghan, C. […] The cleavage of the substrate, which is accompanied by a change in colour, is effected at 37° C. and is followed quantitatively at 482 nm using a spectral photometer. […]
Structures can show the parent of a compound that is named as a salt.
Please respond with reported log10 IC50 for every item in the list.
For clarity, the numbers are log10 values of IC50 expressed in nM.

The compound Cc1nnc(O)c(CNC(=O)N2CC[C@@H]3[C@H]2C(=O)N3S(=O)(=O)O)c1C [17(f), sodium salt] showed log10 IC50 equal to 2.29

Entry under test: O=C(Nc1ccccc1)N1CC[C@@H]2[C@H]1C(=O)N2S(=O)(=O)[O-].[Na+] [Example 2, sodium salt] . Its log10 IC50 was 2.34

The reported value for Cc1cc(=O)oc2cc(OCC(=O)N3CC[C@@H]4[C@H]3C(=O)N4S(=O)(=O)[O-])ccc12.[Na+] [23(a), sodium salt] in terms of log10 IC50 is 1.99

Recorded log10 IC50 (compound O=C(NCc1ccc(O)c(O)c1)N1CC[C@@H]2[C@H]1C(=O)N2S(=O)(=O)[O-].[Na+] [17(e), sodium salt] ): 2.40

// log10 IC50 value for O=C1[C@@H]2[C@@H](CCN2S(=O)(=O)Cc2ccccc2)N1S(=O)(=O)[O-].[Na+] [11(d), sodium salt] : 2.15

Lab book: log10 IC50 of O=C(NCc1nc(C2CC2)no1)N1CC[C@@H]2[C@H]1C(=O)N2S(=O)(=O)[O-].[Na+] [17(af), sodium salt] noted as 2.03

Input Nc1nnc(SCC(=O)Nc2nnc(SCC(=O)N3CC[C@@H]4[C@H]3C(=O)N4S(=O)(=O)O)s2)s1 [6(w), sodium salt] . Output log10 IC50: 1.34

Kindly note the recorded log10 IC50 for Cn1ccnc1SCC(=O)N1CC[C@@H]2[C@H]1C(=O)N2S(=O)(=O)[O-].[Na+] [23(d), sodium salt] , which is 2.45

Reported log10 IC50 ( Cn1cnnc1SCC(=O)N1CC[C@@H]2[C@H]1C(=O)N2S(=O)(=O)[O-].[Na+] [23(b), sodium salt] ) = 1.70

Given item O=C(Nc1nnc(SCC(=O)N2CC[C@@H]3[C@H]2C(=O)N3S(=O)(=O)[O-])s1)OCc1ccccc1.[Na+] [23(i), sodium salt] , the value recorded as its log10 IC50 is 1.85

Query O=C(CCC(=O)N1CC[C@@H]2[C@H]1C(=O)N2S(=O)(=O)O)NOCc1ccco1 [Example 19, sodium salt] yields log10 IC50 of 2.63

The value of log10 IC50 measured for the compound CC(C)n1nnc(CC(=O)N2CC[C@@H]3[C@H]2C(=O)N3S(=O)(=O)[O-])n1.[Na+] [5(l), sodium salt] turned out to be 2.93

The compound identified as O=C(OCc1cccs1)N1CC[C@@H]2[C@H]1C(=O)N2S(=O)(=O)[O-].[Na+] [17(n), sodium salt] registered its log10 IC50 at 2.43

Note to self: log10 IC50 recorded for COc1ccc(NC(=O)N2CC[C@@H]3[C@H]2C(=O)N3S(=O)(=O)[O-])cc1.[Na+] [17(l), sodium salt] was 2.64

====

Biological target: β-lactamase (Citrobacter freundii)
Construct: Various β-lactamases can be isolated from penicillin- or cephalosporin-resistant bacterial strains such as; endogenous in cells; host or cells: Citrobacter freundii 1203 (enzyme purified from the crude cell extract, after ampicillin induction when necessary)
Test: biochemical
Conditions: IC 50 nM, isolated β-lactamase of Citrobacter freundii; substrate nitrocefin 0.1 mM; 15 minutes pre-incubation with inhibitor; 37° C., pH 7.0
Counter-ions that a name gives are not always drawn.
endpoint_label: IC50
Express your answer as a number followed by its unit.

Record O=C(NC1CCCC1)N1CC[C@@H]2[C@H]1C(=O)N2S(=O)(=O)[O-].[Na+] [17(ac), sodium salt] , field IC50: 70 nM

The recorded IC50 for Nc1nc(CNC(=O)N2CC[C@@H]3[C@H]2C(=O)N3S(=O)(=O)[O-])cs1.[Na+] [17(ae), sodium salt] is 200 nM

Record O=C(Nc1cccc(O)c1)N1CC[C@@H]2[C@H]1C(=O)N2S(=O)(=O)O [17(s), sodium salt] , field IC50: 38 nM

get_value(item= O=C(NCCc1ccccn1)N1CC[C@@H]2[C@H]1C(=O)N2S(=O)(=O)[O-].[Na+] [17(b), sodium salt] , readout=IC50) returns 285 nM

Notebook: O=C(CNc1ccc2c(C(F)(F)F)cc(=O)oc2c1)N1CC[C@@H]2[C@H]1C(=O)N2S(=O)(=O)O [5(n), sodium salt] , IC50 read as 67 nM

For reference, reported IC50 for O=C(NCC1CCCO1)N1CC[C@@H]2[C@H]1C(=O)N2S(=O)(=O)[O-].[Na+] (mixture of isomers) [17(y), sodium salt] stands at 238 nM

The recorded IC50 for O=C(Cc1cccnc1)N1CC[C@@H]2[C@H]1C(=O)N2S(=O)(=O)[O-].[Na+] [6(i), sodium salt] is 700 nM

Briefly, IC50 measured for O=C(NCC1CCCCC1)N1CC[C@@H]2[C@H]1C(=O)N2S(=O)(=O)[O-].[Na+] [17(m), sodium salt] : 359 nM

So, NC(=O)/C=C1/CN(C(=O)OCc2ccccc2)[C@@H]2C(=O)N(S(=O)(=O)O)[C@H]12 [14(c), sodium salt] ? Its IC50 was 826 nM

For this molecule ( O=C(/C=C/c1ccc(OS(=O)(=O)[O-])c(OS(=O)(=O)[O-])c1)N1CC[C@@H]2[C@H]1C(=O)N2S(=O)(=O)[O-].[Na+].[Na+].[Na+] [11(c), sodium salt] ), measured IC50 is 1 nM

====

Tested on: Citrobacter freundii
Test: MIC in vitro of a 1:4 combination of ceftriaxone with a compound of formula I (test D)
Format: cell-based
Conditions: 1:4 combination of ceftriaxone with the compound
Structures can show the parent of a compound that is named as a salt.
endpoint_label: MIC (µg/mL)
Field format: number, assumed µg/mL, no unit text.

Entry CCN(CC)CC.O=C(/C=C/c1c[nH]c2ccccc12)N1CC[C@@H]2[C@H]1C(=O)N2S(=O)(=O)O [6(f)] , Citrobacter freundii data, MIC value: 4

Reported MIC (Citrobacter freundii) for entry O=C(NCC1CCCO1)N1CC[C@@H]2[C@H]1C(=O)N2S(=O)(=O)[O-].[Na+] (mixture of isomers) [17(y)] is 1

Citrobacter freundii data for Cc1nnc(O)c(CNC(=O)N2CC[C@@H]3[C@H]2C(=O)N3S(=O)(=O)O)c1C [17(f), sodium salt] ; its MIC: 2

Record O=C(/C=C/c1cccs1)N1CC[C@@H]2[C@H]1C(=O)N2S(=O)(=O)O [8(a)] / Citrobacter freundii, MIC recorded as 4

Summary line: Cn1nnnc1SCC(=O)N1CC[C@@H]2[C@H]1C(=O)N2S(=O)(=O)[O-].[Na+] [5(j)] , Citrobacter freundii, reported MIC = 0.5

Bench note, Citrobacter freundii: NS(=O)(=O)c1ccc(CNC(=O)N2CC[C@@H]3[C@H]2C(=O)N3S(=O)(=O)[O-])cc1.[Na+] [17(g)] , MIC reads 2

Entry NC(C(=O)N1CC[C@@H]2[C@H]1C(=O)N2S(=O)(=O)O)c1ccc(O)cc1 (mixture of isomers) [6(s), sodium salt] ; assay system Citrobacter freundii; MIC recorded at 4

====

Target: β-lactamase (Citrobacter freundii)
Construct: Various β-lactamases can be isolated from penicillin- or cephalosporin-resistant bacterial strains such as; endogenous in cells; host or cells: Citrobacter freundii 1203 (enzyme purified from the crude cell extract, after ampicillin induction when necessary)
Assay: biochemical
Conditions: IC 50 nM, isolated β-lactamase of Citrobacter freundii; substrate nitrocefin 0.1 mM; 15 minutes pre-incubation with inhibitor; 37° C., pH 7.0
endpoint_label: IC50 (nM)
Number in nM, nothing else.

Memo: O=C(NC1CCS(=O)(=O)C1)N1CC[C@@H]2[C@H]1C(=O)N2S(=O)(=O)[O-].[Na+] (mixture of isomers) [17(x), sodium salt] , reported IC50: 199

Input NC(C(=O)N1CC[C@@H]2[C@H]1C(=O)N2S(=O)(=O)[O-])c1ccccc1F.[Na+] (mixture of isomers) [8(c), sodium salt] . Output IC50: 120

Kindly note the recorded IC50 for Cn1cccc1/C=C/C(=O)N1CC[C@@H]2[C@H]1C(=O)N2S(=O)(=O)[O-].[Na+] [23(c), sodium salt] , which is 420
